- System: KYSE-150 cell line;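 note: growth inhibition of human KYSE-150 cells, read out with a cell viability assay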
- ASSAY_METHOD_TEXT: cells
- Assay type: functional, cell-based, Homo sapiens
- ASSAY_CONDITIONS: kyse-150
- Description: SANGER: Inhibition of human KYSE-150 cell growth in a cell viability assay.
TEST_READOUT: pIC50
Lab note — pIC50 values are minus log10 of concentrations in M.

# input pIC50 for BLEOMYCIN ?
# output 8.58

###

- Test system: RPMI-7951
- ASSAY_METHOD_TEXT: cells
- Type: functional, cell-based, Homo sapiens
- ASSAY_CONDITIONS: Homo sapiens, RPMI-7951
- Description: SANGER: Inhibition of human RPMI-7951 cell growth in a cell viability assay.
Structures can show the parent of a compound that is named as a salt.
TEST_READOUT: IC50

# input // query IC50 value for entry CC1(C)CNc2cc(NC(=O)c3cccnc3NCc3ccncc3)ccc21
# output > 2 µM

# input Quick one: Oc1ccc2ccccc2c1SSc1c(O)ccc2ccccc12
# output > 32 µM

# input Would you mind doing COC1=CC(c2cc3ccccc3[nH]2)=N/C1=C\c1[nH]c(C)cc1C [OBATOCLAX MESYLATE] as well?
# output 0.51 µM

# input # iterate: O=C(O)c1ccc(-c2c[nH]c3ncc(-c4ccccc4)cc23)cc1C1CCCC1
# output > 16 µM

# input Param item: CC(C)CCN1c2nc(Nc3cc(F)c(O)c(F)c3)ncc2N(C)C(=O)C1C (centres undefined)
# output 3.4 µM

# input What would you report for CCC/C=C/C=C/C(=O)O[C@H]1/C(=C/C(=O)OC)C[C@H]2C[C@H]([C@@H](C)O)OC(=O)C[C@H](O)C[C@@H]3C[C@H](OC(C)=O)C(C)(C)[C@](O)(C[C@@H]4C/C(=C/C(=O)OC)C[C@H](/C=C/C(C)(C)[C@]1(O)O2)O4)O3 ?
# output > 0.008 µM

# input Then this compound: CCN(CC)CCCCNc1ncc2cc(-c3cc(OC)cc(OC)c3)c(NC(=O)NC(C)(C)C)nc2n1
# output > 2 µM

# input Thanks! And CS(=O)(=O)c1ccc(C(=O)Nc2ccc(Cl)c(-c3ccccn3)c2)c(Cl)c1 ?
# output > 10 µM

# input Ok, now Cc1cn(-c2cc(NC(=O)c3ccc(C)c(Nc4nccc(-c5cccnc5)n4)c3)cc(C(F)(F)F)c2)cn1
# output > 2 µM

###

- Test system: BPH-1;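 note: cell viability assay measuring growth inhibition of human BPH-1 cells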
- ASSAY_METHOD_TEXT: cells
- Type: functional, cell-based, Homo sapiens
- ASSAY_CONDITIONS: bph-1
- Description: SANGER: Inhibition of human BPH-1 cell growth in a cell viability assay.
TEST_READOUT: IC50 (µM)
Respond with the bare value in µM.

# input Look up IC50 for this sequence: CISPLATIN
# output 17.9

###

- System: NCI-H720;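 note: growth inhibition of human NCI-H720 cells determined by a cell viability assay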
- ASSAY_METHOD_TEXT: cells
- Type: functional, cell-based, Homo sapiens
- ASSAY_CONDITIONS: Homo sapiens, NCI-H720
- Description: SANGER: Inhibition of human NCI-H720 cell growth in a cell viability assay.
TEST_READOUT: IC50

# input Find the recorded IC50 belonging to CC(=O)O[C@H]1C(=O)[C@@]2(C)[C@H]([C@H](OC(=O)c3ccccc3)[C@]3(O)C[C@H](OC(=O)[C@H](O)[C@@H](NC(=O)c4ccccc4)c4ccccc4)C(C)=C1C3(C)C)[C@]1(OC(C)=O)CO[C@@H]1C[C@@H]2O [PACLITAXEL] and report it.
# output > 102 nM

# input Same read-out for COc1cc2ncn(-c3cc(OCc4ccccc4C(F)(F)F)c(C(N)=O)s3)c2cc1OC [GW843682X] ?
# output > 256 nM

# input What about C#Cc1cccc(Nc2ncnc3cc(OCCOC)c(OCCOC)cc23)c1 [ERLOTINIB] ?
# output > 2000 nM

# input Queued: CN(C)C(=N)NC(=N)N [METFORMIN]
# output 534000 nM

###

- Tested on: KALS-1
- ASSAY_METHOD_TEXT: cells
- Type: functional, cell-based, Homo sapiens
- ASSAY_CONDITIONS: kals-1
- Description: SANGER: Inhibition of human KALS-1 cell growth in a cell viability assay.
TEST_READOUT: IC50
Answer shape: numeric part, then the unit.

# input # value lookup — system KALS-1, readout IC50, item CISPLATIN;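 note: growth inhibition of KALS-1 cells, determined with a cell viability assay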
# output 71.1 µM

###

- Tested on: CHP-126
- ASSAY_METHOD_TEXT: cells
- Format: functional, cell-based, Homo sapiens
- ASSAY_CONDITIONS: Homo sapiens, CHP-126
- Description: SANGER: Inhibition of human CHP-126 cell growth in a cell viability assay.
Kindly state IC50 for each of the entries shown.

# input Recorded IC50 of Cc1cc([N+](=O)[O-])ccc1NS(=O)(=O)c1cc(Cl)ccc1Cl , please.
# output > 32 µM

# input Here is the next compound: O=C(O)c1ccc(-c2c[nH]c3ncc(-c4ccccc4)cc23)cc1C1CCCC1
# output > 16 µM

###

- Tested on: NB10
- ASSAY_METHOD_TEXT: cells
- Format: functional, cell-based, Homo sapiens
- ASSAY_CONDITIONS: Homo sapiens, NB10
- Description: SANGER: Inhibition of human NB10 cell growth in a cell viability assay.
Counter-ions that a name gives are not always drawn.
TEST_READOUT: IC50

# input Item: COc1cc2c(Nc3ccc(NC(=O)c4ccccc4)cc3)ncnc2cc1OCCCN1CCOCC1 Test system: NB10 Read-out: IC50 Value: ?;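 note: growth inhibition of NB10 cells, read out by a cell viability assay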
# output > 4 µM

# input Thanks! And Cc1cn(-c2cc(NC(=O)c3ccc(C)c(Nc4nccc(-c5cccnc5)n4)c3)cc(C(F)(F)F)c2)cn1 [NILOTINIB] ?
# output > 2 µM

# input Can you handle COC1=CC(c2cc3ccccc3[nH]2)=N/C1=C\c1[nH]c(C)cc1C [OBATOCLAX MESYLATE] next?
# output 2.82 µM

# input Lookup CS(=O)(=O)c1ccc(C(=O)Nc2ccc(Cl)c(-c3ccccn3)c2)c(Cl)c1 [VISMODEGIB]
# output > 10 µM

# input Can you handle CC1(C)CNc2cc(NC(=O)c3cccnc3NCc3ccncc3)ccc21 [MOTESANIB] next?
# output > 2 µM

# input Try this compound too: COc1cc(N2CCN(C)CC2)ccc1Nc1ncc2c(n1)N(C)c1ccccc1C(=O)N2C
# output > 8 µM

# input What would you report for Nc1cccc2c1CN(C1CCC(=O)NC1=O)C2=O (stereo not given) [LENALIDOMIDE] ?
# output > 5 µM

# input Same lookup for Cc1cc([N+](=O)[O-])ccc1NS(=O)(=O)c1cc(Cl)ccc1Cl , please.
# output 16.3 µM

# input Entry CCN(CC)CCCCNc1ncc2cc(-c3cc(OC)cc(OC)c3)c(NC(=O)NC(C)(C)C)nc2n1 [PD-173074] please
# output > 2 µM

# input Lookup CC[C@H](CO)Nc1nc(NCc2ccccc2)c2ncn(C(C)C)c2n1 [SELICICLIB]
# output > 16 µM

###

- Tested on: NH-12
- ASSAY_METHOD_TEXT: cells
- Type: functional, cell-based, Homo sapiens
- ASSAY_CONDITIONS: nh-12
- Description: SANGER: Inhibition of human NH-12 cell growth in a cell viability assay.
TEST_READOUT: IC50
Could you kindly put the unit after your number?

# input Reported IC50 for BLEOMYCIN : what is it?
# output 2210 nM

###

Task for the reader: assign each of the following compounds its reported IC50.
- Tested on: BT-20;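 note: cell viability assay measuring suppression of growth in human BT-20 cells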
- ASSAY_METHOD_TEXT: cells
- Format: functional, cell-based, Homo sapiens
- ASSAY_CONDITIONS: Homo sapiens, BT-20
- Description: SANGER: Inhibition of human BT-20 cell growth in a cell viability assay.
Where a name gives a salt, the structure may show the parent alone.

# input May I ask what IC50 has been recorded for CN(C)C(=N)NC(=N)N [METFORMIN] ?
# output 15300 µM

# input Param item: CC(C)c1ccccc1Cc1cc(C(=O)Nc2ccc(S(=O)(=O)c3ccccc3C(C)(C)C)cc2)c(O)c(O)c1O
# output 0.656 µM

# input Now try CO[C@H]1C[C@@H]2CC[C@@H](C)[C@@](O)(O2)C(=O)C(=O)N2CCCC[C@H]2C(=O)O[C@H]([C@H](C)C[C@@H]2CC[C@@H](OC(=O)C(C)(CO)CO)[C@H](OC)C2)CC(=O)[C@H](C)/C=C(\C)[C@@H](O)[C@@H](OC)C(=O)[C@H](C)C[C@H](C)/C=C/C=C/C=C/1C [TEMSIROLIMUS] .
# output > 0.2 µM

# input Item: COC1=CC(c2cc3ccccc3[nH]2)=N/C1=C\c1[nH]c(C)cc1C [OBATOCLAX MESYLATE]
# output 4.49 µM

# input Query CCN(CC)CCCCNc1ncc2cc(-c3cc(OC)cc(OC)c3)c(NC(=O)NC(C)(C)C)nc2n1 [PD-173074] next
# output > 2 µM

# input And CC(C)CCN1c2nc(Nc3cc(F)c(O)c(F)c3)ncc2N(C)C(=O)C1C (stereo unspecified) ?
# output > 5 µM

###

- Tested on: HEC-1
- ASSAY_METHOD_TEXT: cells
- Format: functional, cell-based, Homo sapiens
- ASSAY_CONDITIONS: Homo sapiens, HEC-1
- Description: SANGER: Inhibition of human HEC-1 cell growth in a cell viability assay.
TEST_READOUT: pIC50
Entry type: numeric. Quantity: pIC50, the -log10 of concentration in molar units.

# input Which pIC50 is listed for COc1cccc2c1C(=O)c1c(O)c3c(c(O)c1C2=O)C[C@@](O)(C(=O)CO)C[C@@H]3O[C@H]1C[C@H](N)[C@H](O)[C@H](C)O1 [DOXORUBICIN] ?
# output 6.74

# input Another: CC(C)c1ccccc1Cc1cc(C(=O)Nc2ccc(S(=O)(=O)c3ccccc3C(C)(C)C)cc2)c(O)c(O)c1O
# output 7.09

# input Could you do the same for Cc1cc([N+](=O)[O-])ccc1NS(=O)(=O)c1cc(Cl)ccc1Cl , please?
# output 5.08

# input Record: CN(C)C(=N)NC(=N)N [METFORMIN]
# output 1.79

# input Now consider Nc1ccn([C@@H]2O[C@H](CO)[C@@H](O)C2(F)F)c(=O)n1 [GEMCITABINE] and answer again.
# output 6.91

Every entry's value here was drawn from ChEMBL document CHEMBL1201861.
